Kindly state pIC50 for each of the entries shown.
Target: Casein kinase II (Homo sapiens, UniProt P19784+P67870+P68400)
Sequence (P67870 whole entry): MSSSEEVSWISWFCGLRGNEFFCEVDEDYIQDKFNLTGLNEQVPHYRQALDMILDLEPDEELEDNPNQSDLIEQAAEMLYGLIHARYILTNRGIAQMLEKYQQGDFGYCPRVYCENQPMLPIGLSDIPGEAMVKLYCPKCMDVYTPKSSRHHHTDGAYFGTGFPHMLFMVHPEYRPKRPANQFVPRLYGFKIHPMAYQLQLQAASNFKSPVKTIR
Sequence (P68400 whole entry): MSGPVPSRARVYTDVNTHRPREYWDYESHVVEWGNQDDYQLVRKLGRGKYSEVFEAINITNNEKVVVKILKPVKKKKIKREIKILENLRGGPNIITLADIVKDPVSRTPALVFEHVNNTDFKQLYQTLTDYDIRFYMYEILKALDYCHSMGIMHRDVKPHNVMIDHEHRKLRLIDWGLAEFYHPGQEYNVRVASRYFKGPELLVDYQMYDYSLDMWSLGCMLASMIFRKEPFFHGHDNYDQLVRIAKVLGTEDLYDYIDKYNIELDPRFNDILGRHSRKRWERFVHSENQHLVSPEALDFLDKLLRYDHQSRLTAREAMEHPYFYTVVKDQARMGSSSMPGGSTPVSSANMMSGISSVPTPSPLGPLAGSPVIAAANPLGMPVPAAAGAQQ
Sequence (P19784 whole entry): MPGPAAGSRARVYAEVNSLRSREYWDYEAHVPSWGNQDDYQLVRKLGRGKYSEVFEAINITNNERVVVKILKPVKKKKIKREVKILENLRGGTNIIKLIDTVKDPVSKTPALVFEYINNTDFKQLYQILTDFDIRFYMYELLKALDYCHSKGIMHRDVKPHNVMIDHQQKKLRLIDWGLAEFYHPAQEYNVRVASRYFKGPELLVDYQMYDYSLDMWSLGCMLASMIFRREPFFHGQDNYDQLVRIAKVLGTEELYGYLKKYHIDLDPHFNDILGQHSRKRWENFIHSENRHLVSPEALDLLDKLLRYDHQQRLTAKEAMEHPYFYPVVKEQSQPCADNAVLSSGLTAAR
Assay: Inhibition of human recombinant CK2 expressed in Escherichia coli BL21(DE3) using RRRDDDSDDD as substrate after 15 mins by capillary electrophoretic analysis
Numbers only, as −log10 of the molar value.

// worked examples, pIC50 included
O=C(O)c1ccc2nc(Nc3cccc(Cl)c3)c3cccn3c2c1
6.08
C#Cc1cccc(Nc2nc3ccc(C(=O)O)cc3n3cccc23)c1
6.08
O=c1oc2c(O)c(O)cc3c(=O)oc4c(O)c(O)cc1c4c23
7.40
Nc1cccc(C#Cc2ccc3c(c2)nc(C(=O)O)c2cccn23)c1
5.08
O=C(O)c1ccc2c(c1)nc(Nc1cccc(Cl)c1)c1cc(-c3cccnc3)cn12
5.80

The following compounds each have a reported value; give each one's pIC50.
1. C#Cc1cccc(Nc2nc3cc(C(=O)O)ccc3n3cccc23)c1
2. O=C(O)c1cc2c(Nc3cccc(Cl)c3)nc3ccccc3n2c1
3. O=C(O)c1nc2cc(Nc3cccc(Cl)c3)ccc2n2cccc12
4. C#Cc1cccc(Nc2nc3ccccc3n3cc(C(=O)O)cc23)c1

Output:
1. 7.11
2. 5.37
3. 6.01
4. 5.72

The following compounds each have a reported value; give each one's pIC50.
1. O=C(O)c1ccn2c1c(Nc1cccc(Cl)c1)nc1ccccc12
2. O=C(O)c1ccc2c(c1)nc(Nc1cccc(Cl)c1)c1cccn12

Output:
[7.31, 6.93]
